Could you please report measured TGI for the items listed next?
tested on: OVCAR-3 ovarian; assay: NCI tumour cell line growth inhibition, 48 h

Which TGI is reported for this compound? C#CCn1c(=O)c(C)cn(/C(=C\C(=O)OCC)C(=O)OCC)c1=O
18.4 µM

Which TGI is reported for this compound? CC(C)Cc1ccc(C(C)CC2=CCC(CN(C)C)C2=O)cc1 (stereo unspecified)
24.9 µM

Which TGI is reported for this compound? OCc1ccc(-c2cscc2-c2ccc(CO)o2)o1
30.6 µM

Which TGI is reported for this compound? CCOC(=O)N1CCc2cc(OC)c(OC)cc2/C1=C\c1ccc(OC)c(OC)c1
82.3 µM

Which TGI is reported for this compound? Cc1c(NC(=S)NC(=O)c2ccc([N+](=O)[O-])cc2)c(=O)n(-c2ccccc2)n1C
> 100 µM

Which TGI is reported for this compound? O=c1cc(N/N=C/c2ccc(F)cc2)c2cc(Cl)ccc2[nH]1
> 100 µM

Which TGI is reported for this compound? O=C(N/N=C/C=C/c1ccccc1)c1ccccc1Nc1ccccc1C(=O)N/N=C/C=C/c1ccccc1
> 100 µM

Which TGI is reported for this compound? COc1ccc(CCn2c(=O)c3ccccc3n(C)c2=O)cc1
> 100 µM

Which TGI is reported for this compound? CN1C(=O)C(O)C[C@@H]1c1ccccc1 (stereo partly specified)
> 100 µM

Which TGI is reported for this compound? CSCCCNC(=O)c1ccc2c(c1)/C(=C/c1[nH]c(C)cc1C)C(=O)N2
> 100 µM

Which TGI is reported for this compound? O=c1oc(C(C(F)(F)F)C(F)(F)F)nc2ccccc12
> 100 µM

* * *

system: PC-3 prostate; assay: NCI tumour cell line growth inhibition, 48 h; in the data active means GI50 below about 0.43 µM; inactive means the rest
Form entry, call: pick from active, inactive

In this assay, the call recorded for Cc1nn2c(/C=C3/C(=O)Nc4cc(Cl)ccc43)c(-c3ccccc3)nc2s1 was what?
inactive

In this assay, the call recorded for CC(C)(C)OC(=O)NCCCn1c2c(c3ccccc3c1=O)C(=O)c1ccccc1-2 was what?
inactive

In this assay, the call recorded for COc1cc2c(cc1OCCCCCCN1CCN(CC(=O)Nc3ccc(Cl)cc3C(=O)c3ccccc3Cl)CC1)N=CC1CCCN1C2=O (centres undefined) was what?
active

In this assay, the call recorded for Cc1c2cc(Cl)c3ccccc3c2c[n+]2ccccc12 was what?
inactive

In this assay, the call recorded for COc1cc2c(cc1OC)C(=O)/C(=C/c1cc(-c3ccc4c(c3)OCO4)n[nH]1)C2 was what?
inactive

In this assay, the call recorded for NCCOCCOCCNc1nc(-c2ccc(Cl)cc2)nc(N2CCN(c3ccccn3)CC2)n1 was what?
inactive

In this assay, the call recorded for COc1cc(NC(=O)CCSc2nc3ccc(C)cc3c(=O)n2Cc2ccccc2)cc(OC)c1OC was what?
inactive

In this assay, the call recorded for O=c1[nH]c2nc(NC3CCOCC3)ncc2cc1Oc1ccc(F)cc1F was what?
inactive

In this assay, the call recorded for COC(=O)COc1ccc(/C=C2/N=C(c3ccccc3)N(c3c(C)n(C)n(-c4ccccc4)c3=O)C2=O)cc1 was what?
inactive

* * *

test system: HL-60(TB) leukemia; test: NCI tumour cell line growth inhibition, 48 h
Threshold rule: TGI greater than or equal to 30 µM is criterion met; below that, criterion not met.

Could you tell me if the measured TGI of CC(C)=CCNc1nc(Cl)nc2nc[nH]c12 reaches 30 µM or more?
criterion met

Could you tell me if the measured TGI of CC(=O)OCC(=O)[C@@]12OC(C)(C)O[C@@H]1C[C@H]1[C@@H]3CC(C=O)=C4C=C(OCCCl)CC[C@]4(C)[C@@]3(F)[C@@H](O)C[C@@]12C reaches 30 µM or more?
criterion met

Could you tell me if the measured TGI of c1ccc2c(c1)oc1ccc3nsnc3c12 reaches 30 µM or more?
criterion met

Could you tell me if the measured TGI of Cc1c(C(=O)OCc2ccccc2)[n+](=O)c2cc(Cl)c(Cl)cc2n1[O-] reaches 30 µM or more?
criterion not met

Could you tell me if the measured TGI of Cc1nc2c(n1C)C(=O)c1ccccc1C2=O reaches 30 µM or more?
criterion met

Could you tell me if the measured TGI of CCOc1c(N=Nc2ccccc2Cl)c(-c2ccccc2)nn1C(=S)S reaches 30 µM or more?
criterion met

Could you tell me if the measured TGI of COc1ccc2[nH]c(O)c(/C=c3/cc4c(c(-c5ccc(F)c(OC)c5)n3)=Nc3ccccc3-4)c2c1 reaches 30 µM or more?
criterion met

Could you tell me if the measured TGI of C#CCn1c(=O)c(C)cn(/C(=C\C(=O)OCC)C(=O)OCC)c1=O reaches 30 µM or more?
criterion met

Could you tell me if the measured TGI of CN1C(=O)C(O)C[C@@H]1c1ccccc1 (stereo partly specified) reaches 30 µM or more?
criterion met

Could you tell me if the measured TGI of CN(C)c1nc2ccccc2c2c1c1c(n2Cc2ccccc2)-c2ccccc2C1=O reaches 30 µM or more?
criterion met

Could you tell me if the measured TGI of CC(=O)Nc1ccc(OC/C(N)=N/NC(=O)c2ccncc2)cc1 reaches 30 µM or more?
criterion met

Could you tell me if the measured TGI of CN(C)Cc1cc(C(=O)/C=C/c2ccccc2)cc(CN(C)C)c1O reaches 30 µM or more?
criterion met

Could you tell me if the measured TGI of CC1=Nc2ccccc2/C1=C\c1c(C)[nH]c2ccccc12 reaches 30 µM or more?
criterion met

Could you tell me if the measured TGI of O=c1[nH]n(Cc2ccccc2)c2ccc([N+](=O)[O-])cc12 reaches 30 µM or more?
criterion met

Could you tell me if the measured TGI of C#Cc1nc2ccccc2c(=O)[nH]1 reaches 30 µM or more?
criterion not met

Could you tell me if the measured TGI of COc1ccc(C(=O)NNc2nc(Cl)nc(N3CCN(C(c4ccccc4)c4ccccc4)CC3)n2)cc1 reaches 30 µM or more?
criterion not met

Could you tell me if the measured TGI of C=CC[n+]1c2ccccc2n2cc([N+](=O)[O-])ccc21 reaches 30 µM or more?
criterion met

Could you tell me if the measured TGI of COc1cccc(N[C@@H]2c3cc4c(cc3C(c3cc(OC)c(O)c(OC)c3)[C@H]3C(=O)OCC32)OCO4)c1 (stereo partly specified) reaches 30 µM or more?
criterion not met

Could you tell me if the measured TGI of O=C(c1cccs1)N1CCN(C(=O)c2cccs2)C1=S reaches 30 µM or more?
criterion not met

Could you tell me if the measured TGI of Cc1ccc(S(=O)(=O)Nn2c(O)c(C#N)c(-c3ccc(Cl)cc3)c(C#N)c2=O)cc1 reaches 30 µM or more?
criterion met

* * *

Could you please report measured TGI for the items listed next?
system: HOP-92 NSCLC; assay: NCI tumour cell line growth inhibition, 48 h

Which TGI is reported for this compound? O=C(Cc1ccc(Cl)c(Cl)c1)NCC1(N2CCCCC2)CCCCC1
> 100 µM

Which TGI is reported for this compound? C=CCO/N=C(\OC(=O)c1ccc([N+](=O)[O-])cc1)c1ccccc1
> 100 µM

Which TGI is reported for this compound? O=C1CC(=O)n2cnc3cccc(c32)N1
> 100 µM

Which TGI is reported for this compound? COc1ccc2[nH]c(O)c(/C=c3/cc4c(c(-c5ccc(F)c(OC)c5)n3)=Nc3ccccc3-4)c2c1
6.62 µM

Which TGI is reported for this compound? Cc1ccc(S(=O)CC(CF)OCn2cc(C)c(=O)[nH]c2=O)cc1 (stereo unspecified)
> 100 µM

Which TGI is reported for this compound? COc1cc(C)c(C2NC(=O)c3ccccc3N2)cc1C (stereo unspecified)
> 86.5 µM

* * *

Could you please report measured GI50 for the items listed next?
tested on: SK-MEL-2 melanoma; test: NCI tumour cell line growth inhibition, 48 h

Which GI50 is reported for this compound? CCCCCC[C@H](C)Nc1nc2ccccc2c2occc12
14.8 µM

Which GI50 is reported for this compound? Cc1cc(O)c(C2=NN(c3ccc(S(N)(=O)=O)cc3)C(c3ccc(Cl)cc3)C2)c(C)c1Cl (stereo not drawn)
11.9 µM

Which GI50 is reported for this compound? CC(=O)[O-].[Mn+3].[O-]c1ccccc1C=NCCNCCN=Cc1ccccc1[O-]
> 100 µM

Which GI50 is reported for this compound? Cc1nn2c(/C=C3/C(=O)Nc4cc(Cl)ccc43)c(-c3ccccc3)nc2s1
7.07 µM

Which GI50 is reported for this compound? S=c1nc(N/N=C/c2ccco2)c2cn[nH]c2[nH]1
> 100 µM

Which GI50 is reported for this compound? O=C([O][Sn]([O]C(=O)c1ccccn1)([c]1ccccc1)[c]1ccccc1)c1ccccn1
2.57 µM

Which GI50 is reported for this compound? C1CC[N-]CC1.CC(=N\O)/C(C)=N/O.CC(=N\O)/C(C)=N/O.OC1[CH-]CCCC1.[Co+2]
23.9 µM

Which GI50 is reported for this compound? Cc1nc2c(n1C)C(=O)c1ccccc1C2=O
> 100 µM

Which GI50 is reported for this compound? COc1cc(NC(=O)CCSc2nc3ccc(C)cc3c(=O)n2Cc2ccccc2)cc(OC)c1OC
4.4 µM

Which GI50 is reported for this compound? C=CC(=O)Nc1cc(N2CCN(CC)CC2)ccc1Nc1cc(N(C)C(=O)Nc2c(Cl)c(OC)cc(OC)c2Cl)ncn1
13 µM

Which GI50 is reported for this compound? O=c1/c(=C\c2ccc(F)cc2)sc2n1C(c1ccc(F)cc1)C1=C(N=2)c2ccc3ccccc3c2OCC1 (stereo not drawn)
> 100 µM

Which GI50 is reported for this compound? CC(C)=CCC(OC(=O)C=C(C)C)C1=CC(=O)c2c(O)ccc(O)c2C1=O (stereo not drawn)
2.97 µM

Which GI50 is reported for this compound? Cc1nc(Nc2cccnc2)sc1C(=O)/C=C/c1ccc(Cl)cc1
3.97 µM

Which GI50 is reported for this compound? C=C1CCC2(C#N)[C@H]3[C@H](CC[C@@H]2C)[C@@H](C)C[C@@H](CC(C)(C)NC(=O)CN2CCC2=O)[C@H]13 (stereo partly drawn)
15.8 µM

Which GI50 is reported for this compound? N.N.N.N.N.O=[N+]([O-])[O-].[Co+3].[O-][Cl+3]([O-])([O-])[O-]
> 100 µM

Which GI50 is reported for this compound? c1ccc(-c2nc(N3CCOCC3)c3c4c(sc3n2)CCCCCC4)nc1
7.9 µM

Which GI50 is reported for this compound? O=C(Nc1ccc(-c2nc(-c3cccc(OCCN4CCOCC4)c3)c(-c3ccnc(Br)c3)[nH]2)cc1)c1ccccc1
2.75 µM

Which GI50 is reported for this compound? COc1cnc2c(c1)C(=O)c1c-2n(CCCNCCO)c(=O)c2ccncc12
1.81 µM
